# Tested on: KM12 colon
# assay procedure: NCI tumour cell line growth inhibition, 48 h
TGI values, listed per item
The answer is to be given in µM; state only the numeric part.

Sample records with TGI:
compound	TGI (µM)
C=C1CC[C@@H]2[C@](C)(COC(C)=O)[C@H](OC(C)=O)CC[C@@]2(C)[C@@H]1CC(Nc1ccc(S(=O)(=O)NC(C)=O)cc1)C1=CCOC1=O (stereo partly drawn)	15.9
Cc1cc(C)n(CC(Cn2nc(C)cc2C)=C(/C(Cl)=C(/Cl)Nc2ccc([N+](=O)[O-])cc2)[N+](=O)[O-])n1	6.55
O=C(Cc1ccc(/C=C/C(=O)c2ncc[nH]2)cc1)Nc1ccc(F)cc1	7.91

Field: next compound
Incoming: Returns the measured TGI for the input compound. Input: "CS(=O)(=O)Nc1cncc(-c2ccc3ncnc(Nc4ccc(F)c(Cl)c4)c3c2)c1"
Outgoing: 13.3
